assayTarget: T1, purified, recombinant parvovirus B19 capsid proteins VP1 and VP2 (VP1-VP2) (human parvovirus B19, UniProt P07299 1-781; P07299 1-554)
T1 construct: Surrogate target: partially purified/purified recombinant VP1 + VP2 preparation; Made by methods of US 5,498,413 or WO 91/12269
assaySummary: phage ELISA; VP1-VP2 coated on dextrin plates, HRP anti-M13 detection
Positions of bridges follow the written chain, without caps; N, C: chain ends. No end group written: not given here.
Simple rule here: ELISA signal less than 0.7 is yes, otherwise no.

binder: FCWLWPAHSCH (peptide, not shown: large carriers, disulfide 2-10 (inferred); also: displayed on M13 phage, coat protein fusion and flanking residues not given here, Tested as phage isolate displaying the peptide (TN9 library); The synthetic peptide form is a separate molecule; also called TN9 isolate H03) [H03-TN9 phage isolate]
assignedClass: no
--
binder: LCPAHWQFWCD (peptide, not shown: large carriers, disulfide 2-10 (inferred); also: displayed on M13 phage, coat protein fusion and flanking residues not given here, Tested as phage isolate displaying the peptide (TN9 library)) [TN9 isolate F01]
assignedClass: yes
--
binder: LFCSFWYNCDD (peptide, not shown: large carriers, disulfide 3-9 (inferred); also: displayed on M13 phage, coat protein fusion and flanking residues not given here, Tested as phage isolate displaying the peptide (TN7 library)) [TN7 isolate F12]
assignedClass: no

Quick check: does AFCHFWFHGCDD (peptide, not shown: large carriers, disulfide 3-10 (inferred); also: displayed on M13 phage, coat protein fusion and flanking residues not given here, Tested as phage isolate displaying the peptide (TN8 library)) [TN8 isolate A05] have ELISA signal under 0.7?
no

Quick check: does LFCRFWYNCSA (peptide, not shown: large carriers, disulfide 3-9 (inferred); also: displayed on M13 phage, coat protein fusion and flanking residues not given here, Tested as phage isolate displaying the peptide (TN7 library)) [TN7 isolate H09] have ELISA signal under 0.7?
yes
